MIC reference
system: Saccharomyces cerevisiae
Unit µg/mL implied. Number only.

Observe how each entry below is paired with its result.
compound: CCC(C)n1ncn(-c2ccc(N3CCN(c4ccc(OCC5COC(Cn6cncn6)(c6ccc(Cl)cc6Cl)O5)cc4)CC3)cc2)c1=O (stereo not shown)
obs value: 0.25
--
compound: CC(=O)N1CCN(c2ccc(OCC3COC(Cn4ccnc4)(c4ccc(Cl)cc4Cl)O3)cc2)CC1 (stereo not shown)
obs value: 1

Reported MIC, compound CCCCCCCCCCCCN1CCC[C@H]1C(=O)N[C@@H](CC(=O)OC)C(=O)OC : ____
4

====

FICI reference
system: Saccharomyces cerevisiae; experiment: checkerboard drug interaction (FICI, MICc);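 note: simplified diagonal checkerboard screen pairing antifungals with FPPS inhibitors, FICI calculated under the Loewe additivity model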; format: cell-based; conditions: S. cerevisiae; FLC:INH combination
Enter a number only.

Observe how each entry below is paired with its result.
compound: CCCCCCCCCN1CCC[C@H]1C(=O)N[C@@H](CC(=O)OC)C(=O)OC [dmPLA9]
assay target: Saccharomyces cerevisiae
obs value: 2.5

compound: CCCCCCCCCN1CCC[C@H]1C(=O)N[C@@H](CC(=O)O)C(=O)O [PLA9]
assay target: Saccharomyces cerevisiae
obs value: 0.31

compound: CCCCCCCCCCCN1CCC[C@H]1C(=O)N[C@@H](CC(=O)O)C(=O)O [PLA11]
assay target: Saccharomyces cerevisiae
obs value: 0.31

Reported FICI, compound O=P(O)(O)C(O)(Cn1ccnc1)P(=O)(O)O [ZOL, zoledronate] : ____
0.38
